Please go through the items and note down their selective drug sensitivity score.
System: COG-LL-355h;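 also: ALL cell lines in 384-well plates, five doses spanning 10,000-fold, each plate scaled between vehicle and 100 µmol/L benzalkonium chloride controls, sDSS an adapted area-under-curve metric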
test protocol: selective drug sensitivity score (sDSS, relative to normal bone marrow) (sDSS (score)); higher = more potent and effective on the cell line relative to normal bone marrow cells
condition description: 72 h
Answer with a number only.

The measured selective drug sensitivity score associated with CCOCc1nc2c(N)nc3ccccc3c2n1CC(C)(C)O [Resiquimod] (top concentration 10000 nM) reads -4.92

The measured selective drug sensitivity score associated with CN[C@@H](C)C(=O)N[C@H]1CN(C(=O)CC(C)C)CC[C@H]2CC[C@@H](C(=O)NC(c3ccccc3)c3ccccc3)N2C1=O [AT-406] (top concentration 10000 nM) reads 8.04

The measured selective drug sensitivity score associated with COc1cc(NS(C)(=O)=O)ccc1Nc1c2ccccc2nc2ccccc12 [Amsacrine] (top concentration 10000 nM) reads 11
